- methodDescription: Accelerated stability test
- Assay type: physicochemical
- protocolConditions: storage 75% relative humidity; Month 2; 40°C ± 2°C, relative humidity 75% ± 5%; read-out: Content
endpointLabel: remaining at 1460 h

Worked cases, answers included:
O=C1Cc2ccccc2C(=C2CCN(CCCCOCOP(=O)(O)O)CC2)c2ccsc21 | 99.7%
O=C1Cc2ccccc2C(=C2CCN(CCOCOP(=O)(O)O)CC2)c2ccsc21 | 99.6%
O=C1Cc2ccccc2C(=C2CCN(CCOP(=O)(O)O)CC2)c2ccsc21 | 99.7%
O=C1Cc2ccccc2C(=C2CCN(CCCOCOP(=O)(O)O)CC2)c2ccsc21 | 99.6%
O=C1Cc2ccccc2C(=C2CCN(CCCCOP(=O)(O)O)CC2)c2ccsc21 | 99.6%
O=C1Cc2ccccc2C(=C2CCN(COP(=O)(O)O)CC2)c2ccsc21 | 99.6%

Supply remaining at 1460 h value. Item: O=C1Cc2ccccc2C(=C2CCN(CCCOP(=O)(O)O)CC2)c2ccsc21
99.6%
